Values compiled from paper PMC5011342.

Parameter: 1 µM (% DMSO). Scope: all listed entries.
- Test system: expanded OPCs
- experiment-notes: cells
- assay-conditions: alamarBlue viability of expanded OPCs, compound at 1 µM, relative to DMSO control
quantity-kind: 1 µM (% DMSO)

>>> df
                                   molecule  quantity_kind  recorded_value
0  Fc1ccc([C@@H]2CCNC[C@H]2COc2ccc3c(c2)OCO3)cc1  1 µM (% DMSO)     27.9 % DMSO
1  CC(C)NCC(O)COc1cccc2[nH]ccc12 (stereo not shown)  1 µM (% DMSO)     89.4 % DMSO
2              CC(C)(C(=O)c1cccnc1)c1cccnc1  1 µM (% DMSO)     94.0 % DMSO
3  CC1(C)S[C@@H]2[C@H](NC(=O)[C@H](N)c3ccc(O)cc3)C(=O)N2[C@H]1C(=O)O  1 µM (% DMSO)    104.4 % DMSO
4         C[C@@](Cc1ccc(O)c(O)c1)(NN)C(=O)O  1 µM (% DMSO)    101.2 % DMSO
5                              NNCCc1ccccc1  1 µM (% DMSO)     95.0 % DMSO
6  Cc1cn([C@H]2C[C@H](N=[N+]=[N-])[C@@H](CO)O2)c(=O)[nH]c1=O  1 µM (% DMSO)     85.7 % DMSO

----------
- Tested on: expanded OPCs
- experiment-notes: cells
- assay-conditions: Rattus norvegicus, 72 h, read-out: 10 µM (% DMSO), alamarBlue viability, NCC library compound at 10 µM, sheet "All Tox data"
A collection of compounds and their measured viability at 10 µM
quantity-kind: viability at 10 µM (%)

In [3]: df
Out[3]:
                                   compound       quantity_kind  recorded_value
0  CC(=O)Oc1ccccc1C(=O)Nc1ncc([N+](=O)[O-])s1 [Nitazoxanide]  viability at 10 µM            55.7
1  Clc1ccc2c(c1)C(N1CCNCC1)=Nc1ccccc1O2 [Amoxapine]  viability at 10 µM            19.2
2  C[N+]1(C)CCC(OC(=O)C(O)(c2ccccc2)C2CCCC2)C1 (centres unmarked) [Glycopyrrolate]  viability at 10 µM             115
3  O=C1N(c2ccccc2)c2ccccc2C1(Cc1ccncc1)Cc1ccncc1 [Linopirdine]  viability at 10 µM            86.2
4  CC(C(=O)O)c1ccc(CC2CCCC2=O)cc1 (centres unmarked) [loxoprofen]  viability at 10 µM            87.6
5  CN1CCN(C2=Nc3cc(F)ccc3Cc3ccccc32)CC1 [Fluperlapine]  viability at 10 µM            32.2
6    c1ccc(Cn2ccnc2)cc1 [1-Benzylimidazole]  viability at 10 µM            94.3
7  CC(C(=O)O)c1ccc(-c2ccccc2)c(F)c1 (centres unmarked) [Flurbiprofen]  viability at 10 µM            89.4

----------
// reported activation at 2 µM for each item listed
- System: acutely dissociated and purified rat OPCs
- experiment-notes: Acute OL differentiation assay (MBP expression/cell, immunofluorescent image quantification)
- Type: cell-based
- assay-conditions: Rattus norvegicus, test compound at 2 uM; MBP expression relative to quetiapine; NCC library screen, sheet "All OLga data"; read-out: 2 uM (% Quet)

compound	activation at 2 µM, %
CN1CCN(C2=Nc3cc(Cl)ccc3Nc3ccccc32)CC1	-39.3
Nc1cc(N2CCCCC2)nc(N)[n+]1[O-]	13.4
O=S(=O)(O)CCS	-46
CCc1c(C)[nH]c2c1C(=O)C(CN1CCOCC1)CC2 (centres unmarked)	1.6
CCC[C@@H]1C[C@@H](C(=O)N[C@@H]([C@H]2O[C@H](SC)[C@H](O)[C@@H](O)[C@H]2O)[C@@H](C)O)N(C)C1	12.6
NNCCc1ccccc1	3.7
CO[C@H]1/C=C/O[C@@]2(C)Oc3c(C)c(O)c4c(O)c(c(/C=N/N5CCN(C6CCCC6)CC5)c(O)c4c3C2=O)NC(=O)/C(C)=C\C=C\[C@H](C)[C@H](O)[C@@H](C)[C@@H](O)[C@@H](C)[C@H](OC(C)=O)[C@@H]1C	-118
CC(=O)OCC(=O)[C@@]12OC3(CCCC3)O[C@@H]1C[C@H]1[C@@H]3CCC4=CC(=O)C=C[C@]4(C)[C@@]3(F)[C@@H](O)C[C@@]12C [Amcinonide]	18.1

----------
- Test system: expanded OPCs
- experiment-notes: cells
- assay-conditions: Rattus norvegicus, 72 h, read-out: 1 µM (% DMSO), alamarBlue viability of expanded OPCs, compound at 1 µM, sheet All Tox data
Below: a set of entries, each annotated with reported viability at 1 µM.

molecule	viability at 1 µM
C[C@H]1O[C@H](O[C@H]2[C@H](O)[C@@H](O)[C@@H](O[C@H]3[C@H](O)[C@@H](O)C(O)O[C@@H]3CO)O[C@@H]2CO)[C@H](O)[C@@H](O)[C@@H]1N[C@H]1C=C(CO)[C@@H](O)[C@H](O)[C@H]1O (some centres unmarked)	92%
CN(C)CCN(Cc1ccccc1)c1ccccn1	86.1%
C[C@H]1COc2c(C3(N)CC3)c(F)cc3c(=O)c(C(=O)O)cn1c23	98%
CN1CC(=O)N2[C@H](c3ccc4c(c3)OCO4)c3[nH]c4ccccc4c3C[C@@H]2C1=O	93%
CC(O)(CS(=O)(=O)c1ccc(F)cc1)C(=O)Nc1ccc(C#N)c(C(F)(F)F)c1 (centres unmarked) [Bicalutamide]	96%
C[C@]12CC[C@@H]3c4ccc(O)cc4CC[C@H]3[C@@H]1CC[C@@H]2O	75.5%
C[C@@H](O)[C@H]1C(=O)N2C(C(=O)O)=C(S[C@@H]3CN[C@H](C(=O)N(C)C)C3)[C@H](C)[C@H]12	98.1%
COC1=C(OC)C(=O)C(CCCCCCCCCCO)=C(C)C1=O	80.9%
COCC1=C(C(=O)OC(C)OC(=O)OC(C)C)N2C(=O)[C@@H](NC(=O)/C(=N\OC)c3csc(N)n3)[C@H]2SC1 (some centres unmarked)	90.7%
C[C@]12CCC(=O)C[C@@H]1CC[C@@H]1[C@@H]2CC[C@@]2(C)[C@H]1CC[C@]2(C)O	94.1%
CCCCc1nc(Cl)c(CO)n1Cc1ccc(-c2ccccc2-c2nn[nH]n2)cc1	91.6%

----------
- System: expanded OPCs
- experiment-notes: cells
- assay-conditions: Rattus norvegicus, 72 h, read-out: 1 µM (% DMSO), alamarBlue viability of expanded OPCs, compound at 1 µM, sheet All Tox data
quantity-kind: viability at 1 µM (%)

molecule	recorded-value
COCc1c(C(C)C)nc(C(C)C)c(/C=C/[C@@H](O)C[C@@H](O)CC(=O)O)c1-c1ccc(F)cc1 [Cerivastatin]	52.3
Nc1ccc(O)c(C(=O)O)c1 [Mesalamine]	92.2
C[C@]12CC[C@H]3[C@@H](CCC4=CC(=O)CC[C@@H]43)[C@@H]1CC[C@@H]2O [Nandrolone]	98.5
Cc1c(O)c(=O)ccn1C [Deferiprone]	90.1
CC(NC(C)(C)C)C(=O)c1cccc(Cl)c1 (stereo not shown) [Bupropion]	98.9
Cc1cn([C@H]2C=C[C@@H](CO)O2)c(=O)[nH]c1=O [Stavudine]	91.5
COc1cc(C)c(Cc2cnc(N)nc2N)cc1OC [Ormetoprim]	91
CC1CNc2c(cccc2S(=O)(=O)N[C@@H](CCCNC(=N)N)C(=O)N2CC[C@@H](C)C[C@@H]2C(=O)O)C1 (stereo partly shown) [Argatroban]	101
Cc1nccn1CC1CCc2c(c3ccccc3n2C)C1=O (stereo not shown) [Ondansetron]	92.2
Cc1ccnc2c1NC(=O)c1cccnc1N2C1CC1 [Nevirapine]	90.2
CN1CCCC(n2nc(Cc3ccc(Cl)cc3)c3ccccc3c2=O)CC1 (stereo not shown) [Azelastine]	51.5
CC1=C(C(=O)O)N2C(=O)[C@@H](NC(=O)[C@H](N)c3ccccc3)[C@H]2SC1 [Cephalexin]	110
O=C1c2c(O)cc(O)cc2OC(c2ccc(O)c(O)c2)C1O (stereo not shown) [Taxifolin]	93.7
C[C@@H](c1ncncc1F)[C@](O)(Cn1cncn1)c1ccc(F)cc1F [Voriconazole]	97.4
CC1COc2c(N3CCN(C)CC3)c(F)cc3c(=O)c(C(=O)O)cn1c23 (stereo not shown) [Ofloxacin]	91.5
COc1cc(N)c(Cl)cc1C(=O)NC1CCN(CCCOc2ccc(F)cc2)CC1OC (stereo not shown) [Cisapride]	89
CC1(C)S[C@@H]2[C@H](/N=C/N3CCCCCC3)C(=O)N2[C@H]1C(=O)O [Amdinocillin]	98.8
CC(C)OC(=O)CCC/C=C\C[C@@H]1[C@@H](CC[C@@H](O)CCc2ccccc2)[C@H](O)C[C@@H]1O [Latanoprost]	91.5
CN[C@H]1CC[C@@H](c2ccc(Cl)c(Cl)c2)c2ccccc21 [Sertraline]	24.6
Cc1cc2c(s1)Nc1ccccc1N=C2N1CCN(C)CC1 [Olanzapine]	60.6
Cc1cccc(Nc2ccncc2S(=O)(=O)NC(=O)NC(C)C)c1 [Torsemide]	88.3
CN1CCN(CCCN2c3ccccc3Sc3ccc(C(F)(F)F)cc32)CC1 [Trifluoperazine, reference compound]	85.8
C[C@@H]1O[C@@H](OC[C@H]2O[C@@H](Oc3c(-c4ccc(O)c(O)c4)oc4cc(O)cc(O)c4c3=O)[C@H](O)[C@@H](O)[C@@H]2O)[C@H](O)[C@H](O)[C@H]1O [Rutin]	108
CCN1CCC[C@H]1CNC(=O)c1c(O)c(Cl)cc(Cl)c1OC [Raclopride]	92.8
COc1ccccc1OCC(O)CN1CCN(CC(=O)Nc2c(C)cccc2C)CC1 (stereo not shown) [Ranolazine]	92.2
NC1CCN(c2nc3c(cc2F)c(=O)c(C(=O)O)cn3-c2ccc(F)cc2F)C1 (stereo not shown) [Tosufloxacin]	104
CC(C)Oc1ccc2c(=O)c(-c3ccccc3)coc2c1 [Ipriflavone]	92.1
CCN1CCCC1CNC(=O)c1cc(S(=O)(=O)CC)ccc1OC (stereo not shown) [Sultopride]	89.8
